Values compiled from paper PMC7586456.

Test system: Vero E6 cells
Settings: African green monkey
MEASUREMENT_NAME: Vero E6 cytotoxicity cytotox

CC1=C[C@]23C(=O)[C@@H](C=C(CO)[C@@H](O)[C@]2(O)[C@H]1O)[C@H]1[C@@H](C[C@H]3C)C1(C)C [ingenol]    –4.0%
C=CC(=O)Nc1cc(Nc2nccc(-c3cn(C)c4ccccc34)n2)c(OC)cc1N(C)CCN(C)C [osimertinib]    99.6%
CC(CN(C)C)CN1c2ccccc2CCc2ccccc21 (stereo not shown) [trimipramine]    16.6%
COc1ccc2cc1Oc1ccc(cc1)C[C@H]1c3c(cc4c(c3Oc3cc5c(cc3OC)CCN(C)[C@@H]5C2)OCO4)CCN1C [cepharanthine]    106.2%

====

Reported Vero E6 cytotoxicity cytotox (SARS-CoV-2 CPE counter screen) is given for each of the following molecules.
System: Vero E6 cells
Conditions: African green monkey
Response body: numeric value in %, unit text excluded.

Solved cases (3 shown):
CC1=C[C@]23C(=O)[C@@H](C=C(CO)[C@@H](O)[C@]2(O)[C@H]1O)[C@H]1[C@@H](C[C@H]3C)C1(C)C    0.0
CC(CN(C)C)CN1c2ccccc2CCc2ccccc21 (stereo not drawn)    16.6
CCN1CCN(Cc2ccc(Nc3ncc(F)c(-c4cc(F)c5nc(C)n(C(C)C)c5c4)n3)nc2)CC1    34.0

Exercise: So what Vero E6 cytotoxicity cytotox (SARS-CoV-2 CPE counter screen) did C=CC(=O)Nc1cc(Nc2nccc(-c3cn(C)c4ccccc34)n2)c(OC)cc1N(C)CCN(C)C get with Vero E6 cells?
Key: 99.7

Exercise: So what Vero E6 cytotoxicity cytotox (SARS-CoV-2 CPE counter screen) did COc1c(OCCCN2CCOCC2)ccc2c1N=C(NC(=O)c1cnc(N)nc1)N1CCN=C21 get with Vero E6 cells?
Key: 42.4

Exercise: So what Vero E6 cytotoxicity cytotox (SARS-CoV-2 CPE counter screen) did COc1ccc2cc1Oc1ccc(cc1)C[C@H]1c3c(cc4c(c3Oc3cc5c(cc3OC)CCN(C)[C@@H]5C2)OCO4)CCN1C get with Vero E6 cells?
Key: 99.0

====

Test system: SARS CoV-2 (USA_WA1/2020)
Conditions: African green monkey
Reported safety ratio (CC50 of Vero E6 CPE counter screen divided by EC50 of SARS-CoV-2 CPE assay) is given for each of the following compounds.

Solved cases (3 shown):
C=CC(=O)Nc1cc(Nc2nccc(-c3cn(C)c4ccccc34)n2)c(OC)cc1N(C)CCN(C)C [osimertinib]    2.5
CC1=C[C@]23C(=O)[C@@H](C=C(CO)[C@@H](O)[C@]2(O)[C@H]1O)[C@H]1[C@@H](C[C@H]3C)C1(C)C [ingenol]    355.7
CCN1CCN(Cc2ccc(Nc3ncc(F)c(-c4cc(F)c5nc(C)n(C(C)C)c5c4)n3)nc2)CC1 [abemaciclib]    6.3

Next:
Exercise: So what safety ratio (CC50 of Vero E6 CPE counter screen divided by EC50 of SARS-CoV-2 CPE assay) did CC(CN(C)C)CN1c2ccccc2CCc2ccccc21 (stereo not shown) [trimipramine] get with SARS CoV-2 (USA_WA1/2020)?
Key: 1.0
